# System Tested: T1, TIM-3 protein on human peripheral blood mononuclear lymphocytes (PBMC) (human, UniProt Q8TDQ0 22-301)
# T1 sequence: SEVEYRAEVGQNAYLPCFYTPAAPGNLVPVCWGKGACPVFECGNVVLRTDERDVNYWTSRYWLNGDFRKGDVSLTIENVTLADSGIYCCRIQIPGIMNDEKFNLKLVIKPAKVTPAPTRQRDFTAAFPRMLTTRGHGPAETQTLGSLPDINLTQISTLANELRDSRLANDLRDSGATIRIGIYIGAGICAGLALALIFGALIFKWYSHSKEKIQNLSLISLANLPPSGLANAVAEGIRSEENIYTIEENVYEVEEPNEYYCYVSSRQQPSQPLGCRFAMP
# Protocol Details: cell-based or functional assay
Reported Property: IFN-γ production (donor X); antibody '0' (5th head as printed), N = 2 (pg/mL)
Just the number in pg/mL, nothing appended.

Below, 3 binders whose answers are already recorded.
>  <Binder>
34B6D8 fully human TIM-3 antibody (human IgG4, kappa) (antibody, V domains shown) VH: EVQLVESGGGLVQPGGSLRLSCAASGFTFSTYWMTWVRQAPGKRLEWVANIKQGGGDKYYVDSVKGRFTISTDNAKNSLYLQMNSLRAEDTAVYYCARGSNWFDPWGQGTLVTVSS VL: EIVMTQSPATLSMSPGERATLSCRASQSVYDNLAWYQQKPGQAPRLLIYGASTRATGIPARFSGSGSGTEFTLTISSLQSEDFALYYCQQYTHWPITFGQGTRLEIK

>  <Units Of Measure>
pg/mL

>  <Meas Value>
2390

$$$$
>  <Binder>
39E5H1 fully human TIM-3 antibody (human IgG4, kappa) (antibody, V domains shown) VH: EVQLVESGGGLVQPGGSLRLSCAASGFTFSSYWMSWVRQAPGKGLEWVANIKRGGSERYYVDSVKGRFTISGDNAKNSVYLQMNSLRAEDTAVYYCARGSNWFDPWGQGTLVTVSS VL: ETVMTQSPAILSVSPGERATLSCRASQSVYSNLAWYQQKLGQAPRLLIYDASTRATGIPARFSGSGSGTEFTLTISSLQSEDFAVYYCQQYNNWPITFGQGTRLEIK

>  <Units Of Measure>
pg/mL

>  <Meas Value>
2370

$$$$
>  <Binder>
7A4F10 fully human TIM-3 antibody (human IgG4, kappa) (antibody, V domains shown) VH: EVQLLESGGGLVQPGGSLRLSCAASGFTFRTHLISWVRQAPGKGLEWVAAITGSGGSTYYADSVKGRFIISRDNSKNTLFLQMNSLRAEDTAVYYCAKDGGSGSYDDFWGQGTLVTVSS VL: ETVLTQSPVTLSLSPGERATLSCRASQSVGSYLAWYQQKPGQAPRLLIYDASNRATGIPARFSGSGSGTDFTLTISSLEPEDFAVYYCQQRSNWPPTFGQGTKVEIK

>  <Units Of Measure>
pg/mL

>  <Meas Value>
2230

$$$$

Return reported IFN-γ production (donor X); antibody '0' (5th head as printed), N = 2; argument: 57F4E5 fully human TIM-3 antibody (human IgG4, kappa) (antibody, V domains shown) VH: EVQLVESGGGLVQPGGSLRLSCAASGFTFSSYWMSWVRQAPGKGLEWVANIKQDGSEKYYVDSVKGRFTISRDSAKNSLYLQMNSLRAEDTAMYFCARDSNFFDYWGQGTLVTVSS VL: ETVMTQSPATLSVSPGERATLSCRASQSVSSNLAWYQRKPGQAPRLLIYFSSTRATGIPARFSGSGSGTEFTLTISSLQSEDFAVYYCQQYNNWPLTFGGGTKVEIK
2400

Return reported IFN-γ production (donor X); antibody '0' (5th head as printed), N = 2; argument: 18D2H2 fully human TIM-3 antibody (human IgG4, kappa) (antibody, V domains shown) VH: EVQLVESGGDLVQPGGSLRLSCAASGFTFSTYWMTWVRQAPGRGLEWVANIKQDGSAKYYVDSVKGRFTLSRDDAKNSLYLQMNSLRAEDTAVYYCARGSNWFDYWGQGTLVTVSS VL: ETVMTQSPATLSVSPGERATLSCRANQNVYSNLAWYQQKPGQAPRLLIYDASTRATGFPARFSGSGSGTEFTLTISSLQSEDFAVYYCQQYNNWPLTFGGGTKVEIK
2170

Return reported IFN-γ production (donor X); antibody '0' (5th head as printed), N = 2; argument: 134H3G6 fully human TIM-3 antibody (human IgG4, kappa) (antibody, V domains shown) VH: EVQLVESGGGLVQPGGSLRLSCAASGFTFSNSWMTWVRQAPGKGLEWVANIKQAGTEKYYVDSVKGRFTISRDNAKNSLYLQMNSLRAEDTAVYYCNSGSNYFDYWGQGTLVTVSS VL: EIVMTQSPATLSVSPGERATLSCRARQNFYSNLAWYQQKPGQAPRLLIYGASTRATGIPARFSGSGSGTEFTLTISSLQSEDFAVYYCQQYNNWPLTFGGGTKVEIK
2370
